Tested on: Mus musculus
Assay: Analgetic activity in sc dosed albino DD mouse by tail pressure stimuli method
Type: functional
Decision: ED50 beneath 20 mg/kg gives Criterion met; ED50 meeting or exceeding 20 mg/kg gives Criterion not met.

Sample answers from the record:
Please check: ED50 for Br.CN1CC2Cc3ccc(O)cc3C(C)(C2)C1 (stereo unspecified) , strictly under 20 mg/kg or not?
Criterion met

Please check: ED50 for CN1CC[C@]23c4c5ccc(O)c4O[C@H]2[C@@H](O)C=C[C@H]3[C@H]1C5.Cl [MORPHINE HYDROCHLORIDE] , strictly under 20 mg/kg or not?
Criterion met

Please check: ED50 for COc1ccc2c3c1O[C@H]1[C@@H](O)C=C[C@H]4[C@@H](C2)N(C)CC[C@@]341.COc1ccc2c3c1O[C@H]1[C@@H](O)C=C[C@H]4[C@@H](C2)N(C)CC[C@@]341.O.O=P(O)(O)O.O=P(O)(O)O [CODEINE PHOSPHATE] , strictly under 20 mg/kg or not?
Criterion met

Further cases:
Please check: ED50 for Br.CN1CCCC2(C)CC1Cc1ccc(O)cc12 (stereo unspecified) , strictly under 20 mg/kg or not?
Criterion met
